Values compiled from paper PMC8347774.

- TARGET_OR_SYSTEM: T1, His6 peptide (antigen of the fluorescence assays) (synthetic peptide)
- T1 construct: His6; The materials name only the biotinylated His6 peptide as synthesised; it may be the same peptide as m17
- T1 chain: HHHHHH
- EXPERIMENT: other fluorescence titration; Q-body de-quenching in solution with His6 peptide at varied concentrations, PBST, plate reader; EC50 from a four-parameter logistic fit
- TEST_PARAMETERS: both partners purified
VALUE_KIND: EC50 (µM)
One number for each entry, in µM.

Batch request: EC50 for each of the following binders.
1. ATTO520-C2 maleimide double-labeled YW Fab 3D5 Q-body (Fab, V domains shown, VH of antibody 3D5, as the VH of m7 with the stated change; numbers count on: Kabat numbering of the heavy chain; CH1 of the vector pUQ2, as in m7; VL of antibody 3D5, as the light chain of m7; CL of the vector pUQ2, as the light chain of m7; m9 labelled with two ATTO520 dyes; also called YW ATTO520; YW-ATTO520; source: E. coli SHuffle T7 Express with pGro7, purified (Talon IMAC), labelled, …) VH: QVQLQQSGPEDVKPGASVKISCKASGYTFTDYWMNWVKQSPGKGLEWIGDINPNNGGTSYNQKFKGRATLTVDKSSSTAYMELRSLTSEDSSVYYCESQSGAYWGQGTTVTVSA VL: DILMTQTPSSLPVSLGDQASISCRSSQSIVHSNGNTYLEWYLQKPGQSPKLLIYKVSNRFSGVPDRFSGSGSGTDFTLKISRVEAEDLGVYYCFQGSHVPFTFGSGTKLEIK
2. ATTO520-C2 maleimide double-labeled wild-type Fab 3D5 Q-body (Fab, V domains shown, VH of antibody 3D5, as in m7; CH1 of the vector pUQ2, as in m7; VL of antibody 3D5, as the light chain of m7; CL of the vector pUQ2, as the light chain of m7; m7 labelled with two ATTO520 dyes; also called Wild-type ATTO520; source: E. coli SHuffle T7 Express with pGro7, purified (Talon IMAC), labelled, purified (anti-FLAG M2 beads, G-25); not shown: Cys-tag, N-terminal, kept; His6, C-terminal, …) VH: QVQLQQSGPEDVKPGASVKISCKASGYTFTDYYMNWVKQSPGKGLEWIGDINPNNGGTSYNQKFKGRATLTVDKSSSTAYMELRSLTSEDSSVYYCESQSGAYWGQGTTVTVSA VL: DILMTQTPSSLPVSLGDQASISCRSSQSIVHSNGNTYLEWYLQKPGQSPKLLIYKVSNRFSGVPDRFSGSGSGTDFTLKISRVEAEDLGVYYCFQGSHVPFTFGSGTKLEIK

[out]
[6.1, 13.8]

I'm hoping you can list EC50 for every binder here, please.
1. ATTO520-C2 maleimide double-labeled WW Fab 3D5 Q-body (Fab, V domains shown, VH of antibody 3D5, as the VH of m7 with the stated changes; numbers count on: Kabat numbering of the heavy chain; CH1 of the vector pUQ2, as in m7; VL of antibody 3D5, as the light chain of m7; CL of the vector pUQ2, as the light chain of m7; m8 labelled with two ATTO520 dyes; also called WW ATTO520; WW-ATTO520; source: E. coli SHuffle T7 Express with pGro7, purified (Talon IMAC), labelled, …) VH: QVQLQQSGPEDVKPGASVKISCKASGYTFTDWWMNWVKQSPGKGLEWIGDINPNNGGTSYNQKFKGRATLTVDKSSSTAYMELRSLTSEDSSVYYCESQSGAYWGQGTTVTVSA VL: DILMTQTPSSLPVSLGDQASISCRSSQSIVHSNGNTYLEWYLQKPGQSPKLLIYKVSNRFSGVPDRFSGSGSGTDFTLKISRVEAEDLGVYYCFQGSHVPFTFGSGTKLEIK
2. 5-TAMRA C6 maleimide double-labeled YW Fab 3D5 Q-body (Fab, V domains shown, VH of antibody 3D5, as the VH of m7 with the stated change; numbers count on: Kabat numbering of the heavy chain; CH1 of the vector pUQ2, as in m7; VL of antibody 3D5, as the light chain of m7; CL of the vector pUQ2, as the light chain of m7; m9 labelled with two dyes; also called YW TAMRA; source: E. coli SHuffle T7 Express with pGro7, purified (Talon IMAC), labelled, purified (anti-FLAG M2 …)) VH: QVQLQQSGPEDVKPGASVKISCKASGYTFTDYWMNWVKQSPGKGLEWIGDINPNNGGTSYNQKFKGRATLTVDKSSSTAYMELRSLTSEDSSVYYCESQSGAYWGQGTTVTVSA VL: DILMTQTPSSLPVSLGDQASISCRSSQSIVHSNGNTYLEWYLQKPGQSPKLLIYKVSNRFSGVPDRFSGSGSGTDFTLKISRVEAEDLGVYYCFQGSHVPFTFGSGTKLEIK

[out]
1. 8.8
2. 54.7
